Below: a set of entries, each annotated with reported T1/2.
ASSAYED TARGET: T1, Peptide A (human PAR-2), N-terminal biotinylated (Human, N-terminal biotin via G4S linker)
T1 construct: also called Peptide A N-Term
T1 peptide: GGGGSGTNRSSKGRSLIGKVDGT
MEASUREMENT PROTOCOL: SPR, peptide immobilized
READOUT KIND: T1/2 (min)

H4H581P (antibody, human IgG4, V domains shown, also called mAb H4H581P; H1H581P variable regions) VH: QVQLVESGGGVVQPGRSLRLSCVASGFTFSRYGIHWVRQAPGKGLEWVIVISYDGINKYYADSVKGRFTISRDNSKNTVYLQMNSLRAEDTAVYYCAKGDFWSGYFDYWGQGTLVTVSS VL: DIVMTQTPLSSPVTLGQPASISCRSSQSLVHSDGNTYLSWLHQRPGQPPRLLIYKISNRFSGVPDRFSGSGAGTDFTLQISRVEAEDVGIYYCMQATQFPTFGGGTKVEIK : 41
H4H584P (antibody, human IgG4, V domains shown, also called H1H584P variable regions) VH: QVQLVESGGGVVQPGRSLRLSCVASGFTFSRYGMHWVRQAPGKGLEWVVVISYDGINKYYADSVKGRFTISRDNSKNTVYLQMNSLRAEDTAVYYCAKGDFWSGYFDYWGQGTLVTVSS VL: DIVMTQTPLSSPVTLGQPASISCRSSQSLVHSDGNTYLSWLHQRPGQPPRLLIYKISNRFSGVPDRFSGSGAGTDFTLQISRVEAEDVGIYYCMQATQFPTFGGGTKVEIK : 43
H4H583P (antibody, human IgG4, V domains shown, also called H1H583P variable regions) VH: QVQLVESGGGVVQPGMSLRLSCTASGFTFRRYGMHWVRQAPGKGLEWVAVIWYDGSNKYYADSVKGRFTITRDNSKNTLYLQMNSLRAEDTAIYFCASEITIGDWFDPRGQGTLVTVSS VL: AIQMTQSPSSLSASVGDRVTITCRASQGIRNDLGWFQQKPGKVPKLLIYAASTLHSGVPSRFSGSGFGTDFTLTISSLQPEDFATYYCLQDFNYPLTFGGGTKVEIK : 46
